Biological target: Carbonic anhydrase 2 (Homo sapiens, UniProt P00918)
resultType: Ki (nM)
# output: bare number, implied unit nM

Any idea what Ki was measured for NS(=O)(=O)c1ccc(/N=C2\NC(=O)/C(=C3/C(=O)Nc4ccccc43)S2)cc1 ?
23

###

Target: Carbonic anhydrase 4 (Homo sapiens, UniProt P22748)
Sequence (P22748 whole entry): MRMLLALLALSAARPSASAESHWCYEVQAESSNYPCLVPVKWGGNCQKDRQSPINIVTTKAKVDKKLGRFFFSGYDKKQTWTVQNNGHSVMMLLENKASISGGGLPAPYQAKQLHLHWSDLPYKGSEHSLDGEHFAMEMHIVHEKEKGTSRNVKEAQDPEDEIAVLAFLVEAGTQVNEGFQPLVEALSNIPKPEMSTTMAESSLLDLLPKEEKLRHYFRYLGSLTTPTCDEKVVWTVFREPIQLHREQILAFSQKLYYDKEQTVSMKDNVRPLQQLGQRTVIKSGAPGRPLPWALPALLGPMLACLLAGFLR
resultType: Ki

Any idea what Ki was measured for COc1ccc2c(c1)/C(=C1/S/C(=N/c3ccc(S(N)(=O)=O)cc3)NC1=O)C(=O)N2 ?
> 10 µM

Consider next the compound NS(=O)(=O)c1ccc(/N=C2\NC(=O)/C(=C3/C(=O)Nc4ccccc43)S2)cc1 in the same way.
> 10 µM

###

So I've got a bunch of molecules here, and I need their IC50 values.
Tested on: MCF7
Assay: Antiproliferative activity against human MCF7 cells by MTT assay

Any idea what IC50 was measured for Cc1ccc2c(c1)/C(=C1/S/C(=N/c3ccc(S(N)(=O)=O)cc3)NC1=O)C(=O)N2 ?
> 200 µM

Consider next the molecule NS(=O)(=O)c1cccc(/N=C2\NC(=O)/C(=C3/C(=O)Nc4ccc([N+](=O)[O-])cc43)S2)c1 in the same way.
> 200 µM

Consider next the molecule NS(=O)(=O)c1ccc(/N=C2\NC(=O)/C(=C3/C(=O)Nc4ccc(F)cc43)S2)cc1 in the same way.
20.5 µM

Consider next the molecule NS(=O)(=O)c1cccc(/N=C2\NC(=O)/C(=C3/C(=O)Nc4ccc(Br)cc43)S2)c1 in the same way.
> 200 µM

###

So I've got a bunch of molecules here, and I need their Ki values.
Target: UniProt:Q16790
Assay: Inhibition of human transmembrane carbonic anhydrase 9 by stopped-flow CO2 hydrase assay
# output: bare number, implied unit nM

Any idea what Ki was measured for CN1C(=O)/C(=C2\S/C(=N/c3ccc(S(N)(=O)=O)cc3)NC2=O)c2ccccc21 ?
146

Consider next the molecule COc1ccc2c(c1)/C(=C1/S/C(=N/c3cccc(S(N)(=O)=O)c3)NC1=O)C(=O)N2 in the same way.
24.7

Consider next the molecule NS(=O)(=O)c1ccc(/N=C2\NC(=O)/C(=C3/C(=O)Nc4ccc(F)cc43)S2)cc1 in the same way.
26.6

###

So I've got a bunch of compounds here, and I need their IC50 values.
System: MCF7
Experiment: Antiproliferative activity against human MCF7 cells by MTT assay

Any idea what IC50 was measured for COc1ccc2c(c1)/C(=C1/S/C(=N/c3ccc(S(N)(=O)=O)cc3)NC1=O)C(=O)N2 ?
125 µM

Consider next the compound Cc1cc(C)c2c(c1)/C(=C1/S/C(=N/c3ccc(S(N)(=O)=O)cc3)NC1=O)C(=O)N2 in the same way.
> 200 µM

Consider next the compound NS(=O)(=O)c1ccc(/N=C2\NC(=O)/C(=C3/C(=O)N(Cc4ccccc4)c4ccccc43)S2)cc1 in the same way.
> 200 µM

Consider next the compound NS(=O)(=O)c1ccc(/N=C2\NC(=O)/C(=C3/C(=O)Nc4ccc([N+](=O)[O-])cc43)S2)cc1 in the same way.
> 200 µM

Consider next the compound NS(=O)(=O)c1ccc(/N=C2\NC(=O)/C(=C3/C(=O)Nc4ccc(Cl)cc43)S2)cc1 in the same way.
3.96 µM

Consider next the compound NS(=O)(=O)c1cccc(/N=C2\NC(=O)/C(=C3/C(=O)Nc4ccccc43)S2)c1 in the same way.
> 200 µM

Consider next the compound CN1C(=O)/C(=C2\S/C(=N/c3ccc(S(N)(=O)=O)cc3)NC2=O)c2cc(Br)ccc21 in the same way.
196 µM

Consider next the compound NS(=O)(=O)c1ccc(/N=C2\NC(=O)/C(=C3/C(=O)N(Cc4ccccc4)c4ccc(Br)cc43)S2)cc1 in the same way.
> 200 µM
